Source listed as ChEMBL document CHEMBL5653606.

- assay_remarks: Plasma concentration in rat at 5 mg/kg, po by LC/MS analysis
- Assay type: ADME, organism-based
- stated_conditions: in vivo
measure: concentration (nM)
Answer format: numeric, nM implied, no suffix.

response.value for `O=C(Nc1cccnn1)N1CCC(=Cc2cccc(Oc3ccc(C(F)(F)F)cn3)c2)CC1` (field: concentration) = 2800

* * *

- assay_remarks: Brain concentration in CFA induced Sprague-Dawley rat at 0.1 mg/kg, po by LC/MS analysis
- Assay type: ADME, organism-based
- stated_conditions: in vivo, read-out: Ct
measure: concentration (nM)
Give just the numeric value; nM need not be written.

Sure, the documented concentration for `O=C(Nc1cccnn1)N1CCC(=Cc2cccc(Oc3ccc(C(F)(F)F)cn3)c2)CC1` is 38.9
